Target: P. aeruginosa RNR active holoenzyme (NrdA/B complex) (Pseudomonas aeruginosa, UniProt Q9I4I1+Q9I4I2)
Sequence (Q9I4I1 1-963): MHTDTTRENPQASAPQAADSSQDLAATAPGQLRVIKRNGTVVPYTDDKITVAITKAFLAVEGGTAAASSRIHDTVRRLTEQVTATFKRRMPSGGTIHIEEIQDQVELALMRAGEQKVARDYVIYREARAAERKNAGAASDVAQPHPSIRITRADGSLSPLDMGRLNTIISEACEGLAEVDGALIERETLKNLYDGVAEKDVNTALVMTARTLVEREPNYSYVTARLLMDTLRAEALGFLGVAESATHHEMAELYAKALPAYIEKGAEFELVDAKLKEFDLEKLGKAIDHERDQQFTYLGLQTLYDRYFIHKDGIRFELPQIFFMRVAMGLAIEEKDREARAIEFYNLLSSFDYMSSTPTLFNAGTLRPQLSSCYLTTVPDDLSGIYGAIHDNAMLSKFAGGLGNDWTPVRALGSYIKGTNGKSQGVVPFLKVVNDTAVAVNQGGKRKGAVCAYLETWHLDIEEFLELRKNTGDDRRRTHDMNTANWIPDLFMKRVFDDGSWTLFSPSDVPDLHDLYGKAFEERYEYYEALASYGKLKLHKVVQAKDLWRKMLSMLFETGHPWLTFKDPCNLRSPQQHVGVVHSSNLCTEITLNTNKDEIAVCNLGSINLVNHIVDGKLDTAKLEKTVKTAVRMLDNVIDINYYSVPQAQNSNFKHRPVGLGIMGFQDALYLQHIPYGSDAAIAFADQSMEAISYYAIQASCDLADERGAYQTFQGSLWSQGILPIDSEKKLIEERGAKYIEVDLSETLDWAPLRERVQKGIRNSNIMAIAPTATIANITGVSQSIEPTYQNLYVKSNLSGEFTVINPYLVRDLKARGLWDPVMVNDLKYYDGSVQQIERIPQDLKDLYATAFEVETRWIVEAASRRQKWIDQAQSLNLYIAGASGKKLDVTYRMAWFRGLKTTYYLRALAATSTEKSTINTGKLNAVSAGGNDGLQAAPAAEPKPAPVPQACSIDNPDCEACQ
Sequence (Q9I4I2 1-415): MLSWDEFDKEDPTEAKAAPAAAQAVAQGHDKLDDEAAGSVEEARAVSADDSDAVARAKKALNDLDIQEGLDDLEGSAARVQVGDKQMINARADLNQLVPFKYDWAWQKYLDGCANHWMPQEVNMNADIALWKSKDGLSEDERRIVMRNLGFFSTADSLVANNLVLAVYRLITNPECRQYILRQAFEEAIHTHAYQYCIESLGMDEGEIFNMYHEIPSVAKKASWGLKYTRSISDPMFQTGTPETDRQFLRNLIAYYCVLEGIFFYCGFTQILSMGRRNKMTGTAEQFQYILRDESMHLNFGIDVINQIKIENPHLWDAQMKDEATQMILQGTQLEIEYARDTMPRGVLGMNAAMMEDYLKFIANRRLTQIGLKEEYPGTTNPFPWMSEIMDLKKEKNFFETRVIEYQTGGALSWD
Assay: EPR, tyrosyl radical quenching in holoenzyme
Type: biochemical
Conditions: 133 µM compound, 12 µM each NrdA and NrdB, 5 mM ATP, 10 mM magnesium acetate, 30 mM DTT, 50 mM Tris pH 7.5; corrected for control decay
Hi there, I'd appreciate the recorded Tyrosyl radical decay rate for every entry that follows.
Numbers only, in min⁻¹.

Below: 4 molecules and their reported Tyrosyl radical decay rate.
>>> df
                                   molecule              assay_endpoint  reported_result
0                  CC(=O)c1cc(O)c2ccccc2c1O  Tyrosyl radical decay rate             0.43
1  COc1cc(-c2ccc(Nc3ccccc3C(=O)O)c(OC)c2)ccc1Nc1ccccc1C(=O)O  Tyrosyl radical decay rate             0.67
2                N#Cc1c(C#N)c(O)c2ccccc2c1O  Tyrosyl radical decay rate             0.43
3   CCc1oc2ccccc2c1C(=O)c1cc(Br)c(O)c(Br)c1  Tyrosyl radical decay rate             0.33

Using the record for COc1ccc(C2=NC(=O)NC2c2ccc(OC)cc2)cc1 (centres unmarked) , report its Tyrosyl radical decay rate.
0.18
